Protocol notes: Solubility in DMEM/F12 culture medium
Run parameters: aqueous buffer, kinetic from dmso stock
Experimental readout: solubility (µM)
Answers are plain numbers, in µM.

The recorded solubility for entry `O=c1ccc2ccc3occc3c2o1` equals 800
